Experimental system: S1P1 (Homo sapiens)
Sequence (P21453 whole entry, species assumed): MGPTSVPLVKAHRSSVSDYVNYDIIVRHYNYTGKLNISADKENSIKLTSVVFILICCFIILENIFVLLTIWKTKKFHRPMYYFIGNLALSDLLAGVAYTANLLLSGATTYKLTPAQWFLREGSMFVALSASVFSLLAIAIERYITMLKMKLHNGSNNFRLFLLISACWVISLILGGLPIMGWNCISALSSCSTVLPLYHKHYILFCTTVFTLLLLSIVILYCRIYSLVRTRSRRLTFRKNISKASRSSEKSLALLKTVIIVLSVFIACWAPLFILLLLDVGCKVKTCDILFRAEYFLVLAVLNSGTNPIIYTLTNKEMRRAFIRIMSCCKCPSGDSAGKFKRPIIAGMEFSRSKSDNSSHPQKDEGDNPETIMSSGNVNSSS
Assay: Receptor binding assay, [33P]sphingosine 1-phosphate competition, S1P1 membranes, WGA SPA beads
Condition summary: 96 well-plate; read-out: S1P1 binding Ki (M) (96 well-plate)
Counter-ions that a name gives are not always drawn.
Measured metric: log10 Ki (log10 of the value in M)
The figures below represent log10 of Ki, where Ki is stated in M.

Exercise: Enter reported log10 Ki observed with S1P1 (Homo sapiens) for COCc1cc(-c2nc(-c3cccc(CN(CCO)CCO)c3)no2)ccc1-c1ccccc1C [Example 40]
Key: -9.34

Exercise: Enter reported log10 Ki observed with S1P1 (Homo sapiens) for C[C@H]1CCCCN1c1ccc(-c2nc(-c3cccc(CN(C)CC(=O)O)c3)no2)cc1C(F)(F)F [Example 46, hydrochloride salt]
Key: -9.97

Exercise: Enter reported log10 Ki observed with S1P1 (Homo sapiens) for COCc1cc(-c2nc(-c3ccc(OCCO)cc3)no2)ccc1-c1ccccc1C [Example 23]
Key: -8.66

Exercise: Enter reported log10 Ki observed with S1P1 (Homo sapiens) for COCc1cc(-c2nc(-c3ccc(CNCC(=O)O)cc3)no2)ccc1-c1ccccc1C [Example 60, hydrochloride salt]
Key: -9.51

Exercise: Enter reported log10 Ki observed with S1P1 (Homo sapiens) for Cc1ccccc1-c1ccc(-c2nc(-c3ccc(CNCCC(=O)O)cc3)no2)cc1C(F)(F)F [Example 84]
Key: -9.84

Exercise: Enter reported log10 Ki observed with S1P1 (Homo sapiens) for COCc1cc(-c2nc(-c3cccc(CN(C)CC(=O)O)c3)no2)ccc1-c1ccccc1Cl [Example 11, hydrochloride salt]
Key: -9.21

Exercise: Enter reported log10 Ki observed with S1P1 (Homo sapiens) for Cc1ccccc1-c1ccc(-c2nc(-c3ccc(CN(C)CC(=O)O)cc3)no2)cc1C [Example 130, hydrochloride salt]
Key: -9.08

Exercise: Enter reported log10 Ki observed with S1P1 (Homo sapiens) for COCc1cc(-c2nc(-c3cccc(CC(=O)NCC(=O)OC)c3)no2)ccc1-c1ccccc1C [Example 24]
Key: -9.04

Exercise: Enter reported log10 Ki observed with S1P1 (Homo sapiens) for COCc1cc(-c2nc(-c3cc(Cl)cc(CN(C)CC(=O)O)c3)no2)ccc1-c1ccccc1C [Example 93, hydrochloride salt]
Key: -9.40

Exercise: Enter reported log10 Ki observed with S1P1 (Homo sapiens) for CC1CCCCN1c1ccc(-c2nc(-c3ccc(CN(C)CC(=O)O)c(F)c3)no2)cc1C(F)(F)F (stereo not shown) [Example 85, dihydrochloride salt]
Key: -9.50

Exercise: Enter reported log10 Ki observed with S1P1 (Homo sapiens) for COCc1cc(-c2nc(-c3ccc(CNCC(=O)O)cc3)no2)ccc1-c1ccccc1F [Example 61, hydrochloride salt]
Key: -9.65

Exercise: Enter reported log10 Ki observed with S1P1 (Homo sapiens) for COCc1cc(-c2nc(-c3cccc(CN(CC(=O)O)CC(C)C)c3)no2)ccc1-c1ccccc1C [Example 59, hydrochloride salt]
Key: -8.96

Exercise: Enter reported log10 Ki observed with S1P1 (Homo sapiens) for COCc1cc(-c2nc(-c3cccc(CC(=O)NCCN(C)C)c3)no2)ccc1-c1ccccc1C [Example 41]
Key: -8.90

Exercise: Enter reported log10 Ki observed with S1P1 (Homo sapiens) for COCc1cc(-c2nc(-c3ccc(CN(C)CC(=O)O)c(Br)c3)no2)ccc1-c1ccccc1C [Example 53, hydrochloride salt]
Key: -9.67

Exercise: Enter reported log10 Ki observed with S1P1 (Homo sapiens) for COCc1cc(-c2nc(-c3cccc(CN(C)CC(O)CO)c3)no2)ccc1-c1ccccc1C (stereo not shown) [Example 39]
Key: -9.43

Exercise: Enter reported log10 Ki observed with S1P1 (Homo sapiens) for Cc1ccccc1-c1ccc(-c2nc(-c3cccc(COCC(=O)O)c3)no2)cc1C(F)(F)F [Example 48]
Key: -9.01

Exercise: Enter reported log10 Ki observed with S1P1 (Homo sapiens) for COC(C)c1cc(-c2nc(-c3ccc(CN(C)CC(=O)O)cc3)no2)ccc1-c1ccccc1C (stereo not shown) [Example 140, hydrochloride salt]
Key: -9.72

Exercise: Enter reported log10 Ki observed with S1P1 (Homo sapiens) for COCc1cc(-c2nc(-c3cccc(CN(C)CC(=O)O)c3)no2)ccc1-c1cc(F)ccc1C [Example 37, hydrochloride salt]
Key: -9.48

Exercise: Enter reported log10 Ki observed with S1P1 (Homo sapiens) for COCc1cc(-c2nc(-c3cc(F)cc(CN(C)CC(=O)O)c3)no2)ccc1-c1ccccc1C [Example 20, hydrochloride salt]
Key: -9.77

Exercise: Enter reported log10 Ki observed with S1P1 (Homo sapiens) for CCN(CCC(=O)O)Cc1cccc(-c2noc(-c3ccc(-c4ccccc4F)c(COC)c3)n2)c1 [Example 62, hydrochloride salt]
Key: -9.77

Exercise: Enter reported log10 Ki observed with S1P1 (Homo sapiens) for CCc1ccccc1-c1ccc(-c2nc(-c3ccc(C(=O)NCCC(=O)O)c(F)c3)no2)cc1COC [Example 16]
Key: -8.65

Exercise: Enter reported log10 Ki observed with S1P1 (Homo sapiens) for CC1CCCCN1c1ccc(-c2nc(-c3cc(F)cc(CN(C)CC(=O)O)c3)no2)cc1C(F)(F)F (stereo not shown) [Example 56, hydrochloride salt]
Key: -9.49

Exercise: Enter reported log10 Ki observed with S1P1 (Homo sapiens) for COCc1cc(-c2nc(-c3ccc(CN(C)CC(=O)O)cc3)no2)ccc1-c1ccccc1F [Example 54, hydrochloride salt]
Key: -9.52

Exercise: Enter reported log10 Ki observed with S1P1 (Homo sapiens) for CCN(CCC(=O)O)Cc1cccc(-c2noc(-c3ccc(-c4ccccc4C)c(COC)c3)n2)c1 [Example 63, hydrochloride salt]
Key: -9.79

Exercise: Enter reported log10 Ki observed with S1P1 (Homo sapiens) for COCc1cc(-c2nc(-c3cc(F)cc(CN(C)CC(=O)O)c3)no2)ccc1-c1ccccc1F [Example 57, hydrochloride salt]
Key: -9.94

Reference source for all entries: patent US8815919B2
